These data points were gathered from patent US4902709A.

Known pIC50 of a selection of compounds
Biological target: HMG-CoA reductase (Rattus norvegicus)
Sequence (P51639 whole entry): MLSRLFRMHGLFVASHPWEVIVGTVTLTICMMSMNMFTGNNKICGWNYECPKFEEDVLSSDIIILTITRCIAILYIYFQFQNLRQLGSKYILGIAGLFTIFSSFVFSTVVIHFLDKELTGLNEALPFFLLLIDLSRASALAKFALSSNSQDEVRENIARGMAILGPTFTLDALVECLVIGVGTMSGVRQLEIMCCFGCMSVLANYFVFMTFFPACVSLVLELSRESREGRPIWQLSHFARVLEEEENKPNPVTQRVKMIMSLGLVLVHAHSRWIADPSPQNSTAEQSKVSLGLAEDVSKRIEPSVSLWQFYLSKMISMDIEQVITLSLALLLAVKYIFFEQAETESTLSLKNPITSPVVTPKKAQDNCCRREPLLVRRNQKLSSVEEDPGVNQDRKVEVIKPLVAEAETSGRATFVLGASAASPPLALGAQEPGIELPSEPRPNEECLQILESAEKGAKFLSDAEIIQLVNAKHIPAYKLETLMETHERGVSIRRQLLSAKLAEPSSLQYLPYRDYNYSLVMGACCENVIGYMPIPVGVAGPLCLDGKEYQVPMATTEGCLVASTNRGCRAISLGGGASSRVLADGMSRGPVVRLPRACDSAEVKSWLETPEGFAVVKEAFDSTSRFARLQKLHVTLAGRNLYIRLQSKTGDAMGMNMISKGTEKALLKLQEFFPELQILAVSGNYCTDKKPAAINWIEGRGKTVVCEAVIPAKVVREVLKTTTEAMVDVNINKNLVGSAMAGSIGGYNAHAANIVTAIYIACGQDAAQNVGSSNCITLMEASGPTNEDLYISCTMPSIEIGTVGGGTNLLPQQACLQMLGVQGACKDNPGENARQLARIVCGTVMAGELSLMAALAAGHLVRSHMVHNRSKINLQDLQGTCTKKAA
In textbook form, pIC50 equals minus log to base ten of the concentration in mol/L.

Look over these answered cases.
O=C1C[C@@H](c2ccc(O)cc2)C[C@H](CCc2ccc(Cl)cc2Cl)O1 (relative stereo) = 4.68
O=C1C[C@@H](c2ccccc2)C[C@H](CCc2ccc(Cl)cc2Cl)O1 (relative stereo) = 4.68

Proceeding to the next compound to report its pIC50.
Query COc1ccc([C@@H]2CC(=O)O[C@@H](CCc3ccc(Cl)cc3Cl)C2)cc1 (relative stereo) yields pIC50 of 4.36
